The reported numbers originate from ChEMBL document CHEMBL1121582.

Provide the reported Inhibition zone of each item.
# Tested on: Poliovirus 1
# assay overview: Antiviral activity was evaluated in vitro against human poliovirus as inhibition zone in agar-diffusion plaque-inhibition test
# Format: functional
Write the value in mm as a bare number.

So what's the measured Inhibition zone for this one? Nc1ccccc1NC(=O)Nc1ccccc1
0

Now try NC(N)=S .
26

Now try O=C(Nc1ccccc1)Nc1ccccc1O .
36.2

Now try O=C(Nc1ccccc1)Nc1ccc(O)cc1 .
0

Now try Nc1cccc(O)c1 .
0

Now try Nc1ccc(N/C(S)=N/c2ccccc2)cc1 .
0
